Assayed System: FAAH (Homo sapiens, UniProt O00519)
Sequence (O00519 whole entry): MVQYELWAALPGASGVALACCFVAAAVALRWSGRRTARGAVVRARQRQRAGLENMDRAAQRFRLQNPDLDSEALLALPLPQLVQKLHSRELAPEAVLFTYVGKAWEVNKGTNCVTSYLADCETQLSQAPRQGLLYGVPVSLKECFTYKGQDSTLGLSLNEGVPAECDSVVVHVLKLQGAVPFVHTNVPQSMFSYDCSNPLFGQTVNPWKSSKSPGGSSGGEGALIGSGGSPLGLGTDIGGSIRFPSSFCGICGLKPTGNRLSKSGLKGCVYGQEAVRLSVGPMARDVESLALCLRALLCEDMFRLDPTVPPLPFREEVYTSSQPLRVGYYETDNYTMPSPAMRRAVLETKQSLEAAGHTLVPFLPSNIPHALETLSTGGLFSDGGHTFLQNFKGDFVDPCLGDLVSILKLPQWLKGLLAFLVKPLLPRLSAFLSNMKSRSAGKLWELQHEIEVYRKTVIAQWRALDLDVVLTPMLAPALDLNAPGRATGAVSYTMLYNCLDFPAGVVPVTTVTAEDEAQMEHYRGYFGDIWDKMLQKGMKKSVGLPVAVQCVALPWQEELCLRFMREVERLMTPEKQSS
Method Notes: Assay Method 1: FAAH assay, 3H-anandamide hydrolysis in homogenate of T84 cells or SK-N-MC cells transfected with human FAAH
Structures can show the parent of a compound that is named as a salt.
Assay Endpoint: IC50 (nM)

Some compounds with recorded IC50:
OC(CNc1cc(-c2ccc(C(F)(F)F)c(Cl)c2)ncn1)c1ccsc1 (stereo not drawn)    66
COc1cccc(C(O)CNc2cc(-c3ccc(OC(F)(F)F)cc3)ncn2)c1 (stereo not drawn)    32
CCCOc1ccc(-c2cc(NC[C@H](O)c3ccccc3)ncn2)cc1F [Example 35, trifluoroacetic acid salt]    43

P. OC(CNc1cc(-c2ccc(C(F)(F)F)c(Cl)c2)ncn1)c1cccc(SC(F)(F)F)c1 (stereo not drawn)
Q. CC(O)(CNc1cc(-c2ccc(C(F)(F)F)c(Cl)c2)ncn1)c1ccccc1 (stereo not drawn)
R. Cc1nc(NC[C@H](O)c2ccccc2)cc(-c2ccc(C(F)(F)F)c(Cl)c2)n1
S. O[C@@H](CNc1cc(-c2csc3ccccc23)ncn1)c1ccccc1 [Example 87, trifluoroacetic acid salt]
Task item: Rank items: key IC50, increasing. // list labels; follow requested order
Reply: R, S, P, Q
(R: 20 nM, S: 42 nM, P: 92 nM, Q: 3000 nM)

P. O=Cc1ccc(-c2cc(NC[C@H](O)c3ccccc3)ncn2)cc1
Q. O=S(=O)(c1ccc(-c2cc(NC[C@H](O)c3ccccc3)ncn2)cc1)N1CCCCC1
Task item: API: POST /compare with P and Q ; response names the item with higher IC50. API: response body contains the label of the selected item.
Reply: Q
(Q: 542 nM, P: 81 nM)

The origin of these recorded values is patent US8598202B2.
